- RECORDED_CONDITIONS: buffer; pH 7.4; 200.0 µM
MEASUREMENT_TYPE: solubility kinetic (µg/mL)
Express it in µg/mL; write the number only.

q: Return the recorded solubility kinetic value; entry: COc1ccccc1NC(=O)/C(C#N)=C/c1cccnc1
a: 41.3

q: Return the recorded solubility kinetic value; entry: COc1ccc(NC(=O)N2CCc3ccccc3C2)c(OC)c1
a: 42.3

q: Return the recorded solubility kinetic value; entry: CNC(=O)NC(=O)COc1ccc2oc3c(c2c1)CCCC3
a: 2

q: Return the recorded solubility kinetic value; entry: Cc1ccc(NC(=O)NCc2nc3ccccc3n2C)cc1
a: 34.8

q: Return the recorded solubility kinetic value; entry: CC(=O)c1ccc(N2CCN(Cc3nc4ccccc4[nH]3)CC2)cc1
a: 29.8

q: Return the recorded solubility kinetic value; entry: O=c1nc(N2CCCC2)nc(N2CCCC2)[nH]1
a: 34.3

Values were extracted from PubChem BioAssay AID1996.
